- Assay Protocol: Waters ACQUITY UPLC BEH C18, 100 × 2.1 mm, 1.7 µm, 40 °C, 0.3 to 0.4 mL/min, estimated dead time 0.63 min; A: water + 0.1% formic acid; B: methanol + 0.1% formic acid; gradient (min/%B) 0/0.5 0.1/0.5 10/80 10.1/99.5 12/99.5
- Stated Conditions: stereoisomer not certain
Experimental Readout: LC retention time (min)

Example compounds with recorded LC retention time:
Prompt line: Find the measured LC retention time of CC(O)(CC(=O)O)CC(=O)OCC1OC(Oc2c(-c3ccc(O)cc3)oc3cc(O)cc(O)c3c2=O)C(O)C(O)C1O (stereo not drawn) and report it.
Response line: 4.5

Prompt line: Find the measured LC retention time of CCC1C2CCN3CCC4(C(=C2C(=O)OC)Nc2ccccc24)C13 (stereo not drawn) and report it.
Response line: 4.92

Prompt line: Find the measured LC retention time of CC1(C(=O)O)CCC2(C)CCC3(C)C(=CCC4C5(C)CCC(OC6OC(C(=O)O)C(O)C(O)C6OC6OC(C(=O)O)C(O)C(O)C6O)C(C)(C)C5CCC43C)C2C1 (stereo not drawn) and report it.
Response line: 6.45

Prompt line: Find the measured LC retention time of CC(C)CC(NC(=O)C(N)CO)C(=O)O (stereo not drawn) and report it.
Response line: 2.38

Prompt line: Find the measured LC retention time of CC(C)=CCC=C(C)C1CCC2(C)C1C(O)CC1C3(C)CCC(OC4OC(CO)C(O)C(O)C4O)C(C)(C)C3CCC12C (stereo not drawn) and report it.
Response line: 7.63

(I) COc1ccc(C2OCC3C(c4ccc(OC5OC(CO)C(O)C(O)C5O)c(OC)c4)OCC23)cc1OC (stereo not drawn)
(II) NCCCCNC(=O)C=Cc1ccc(O)cc1
Prompt line: Larger number for LC retention time: I , or II ? Your answer should be the label of the entry you select.
Response line: I

(1) O=c1c2ccccc2nc2n1CCC2
(2) COc1cc(C=CC(=O)O)cc(OC)c1
Prompt line: # query: argmin of LC retention time over 1 and 2 Your answer should be the label of the entry you select.
Response line: 1
(1: 3.94 min, 2: 6.26 min)

(A) COc1c(O)cc2c(c1O)C1OC(CO)C(O)C(O)C1OC2=O (stereo not drawn)
(B) CC1OC(Oc2c(-c3ccc(O)c(O)c3)oc3cc(OC4OC(CO)C(O)C(O)C4O)cc(O)c3c2=O)C(OC2OC(COC(=O)C=Cc3ccc(O)cc3)C(O)C(O)C2O)C(O)C1O (stereo not drawn)
Prompt line: Larger number for LC retention time: A , or B ? Your answer should be the label of the entry you select.
Response line: B

* * *

- Assay Protocol: Waters ACQUITY UPLC BEH C18, 100 × 2.1 mm, 1.7 µm, 40 °C, 0.3 to 0.4 mL/min, estimated dead time 0.63 min; A: water + 0.1% formic acid; B: methanol + 0.1% formic acid; gradient (min/%B) 0/0.5 0.1/0.5 10/80 10.1/99.5 12/99.5
- Stated Conditions: stereoisomer not certain
Experimental Readout: LC retention time (min)

Prompt line: Find the measured LC retention time of O=c1ccn(C2OC(CO)C(O)C2O)c(=O)[nH]1 (centres undefined) and report it.
Response line: 1.8

(a) CC1OC(OCC2OC(Oc3cc4c(O)cc(O)cc4[o+]c3-c3ccc(O)c(O)c3)C(O)C(O)C2O)C(O)C(O)C1O (centres undefined)
(b) CCC1(O)C(=O)OCc2c1cc1n(c2=O)Cc2cc3c([N+](=O)[O-])cccc3nc2-1 (centres undefined)
Prompt line: # query: argmin of LC retention time over a and b Your answer should be the label of the entry you select.
Response line: a

(a) CC(=O)OC1CC(COC2OC(CO)C(O)C(O)C2O)CNC12OC1CC3C4CCC5CC(OC6OC(CO)C(OC7OC(CO)C(OC8OCC(O)C(O)C8O)C(O)C7OC7OC(CO)C(O)C(O)C7O)C(O)C6O)CCC5(C)C4CCC3(C)C1C2C (centres undefined)
(b) O=C(O)C(Cc1ccccc1)NCC1(O)OC(CO)C(O)C1O (centres undefined)
Prompt line: # query: argmin of LC retention time over a and b Your answer should be the label of the entry you select.
Response line: b
(b: 2.33 min, a: 3.59 min)

(1) OCCc1c[nH]c2ccccc12
(2) COc1ccc2cc1Oc1ccc(cc1)CC1c3cc(c(OC)cc3CCN1C)Oc1c(OC)c(OC)c(OC)c3c1C(C2)N(C)CC3 (centres undefined)
Prompt line: Larger number for LC retention time: 1 , or 2 ? Your answer should be the label of the entry you select.
Response line: 2

(a) OCC1OC(Oc2cc3c(O)cc(O)cc3[o+]c2-c2cc(O)c(O)c(O)c2)C(O)C(O)C1O (centres undefined)
(b) CCCSSCC(NC(=O)CCC(N)C(=O)O)C(=O)NCC(=O)O (centres undefined)
(c) CC(C)=CCc1c(O)cc(O)c(CC=C(C)C)c1CCc1ccc(O)c(O)c1
Prompt line: Ordering criterion: LC retention time; begin with the maximum. Form entry: ranked labels (order as requested).
Response line: c, b, a
(c: 7.84 min, b: 3.78 min, a: 2.61 min)

Sourced from the RepoRT retention time repository
